Entries and their PDI values follow.
- assay: Particle size and polydispersity index of nanoparticle compositions (Zetasizer Nano ZS)
- Assay type: physicochemical
- test.settings: Table 1E; compositions for subcutaneous administration
Give the figure only, with no unit attached.

Worked set:
* CCCC/C=C\CCC(CC/C=C\CCCC)OC(=O)CCCCCCCN(CCO)CCCCCC(=O)OCCCCCCCCCCC | 0.08
* CCCC/C=C\CCC(CC/C=C\CCCC)OC(=O)CCCCCCCN(CCO)CCCCCCCC(=O)OCCCCCCCCC | 0.12
* CCCCCCCCCOC(=O)CCCCCCCN(CCCO)CCCCCCCC(=O)OC(CCCCCCCC)CCCCCCCC | 0.13

Sure, the documented PDI for CCCCCCCCCOC(=O)CCCCCCCN(CCCCCCCC(=O)OC(CCCCCCCC)CCCCCCCC)CCCNC(C)=O is 0.15

All values here come from patent US12263248B2.
